- Method Summary: Oral bioavailability study in dogs
- Set-up: species or system beagle dogs
- Condition Details: dog, in vivo, 5 mg/kg, summary statement, dose not stated
Observation Type: bioavailability

Q) // lookup bioavailability for CC(C)c1nc(CN(C)C(=O)NC(C(=O)N[C@@H](Cc2ccccc2)C[C@H](O)[C@H](Cc2ccccc2)NC(=O)OCc2cncs2)C(C)C)cs1 (stereo partly shown)
A) < 2%
